Molecular target: human TRPV3 (Homo sapiens, UniProt Q8NET8)
Construct: expressed in transfected cells
Sequence (Q8NET8 whole entry): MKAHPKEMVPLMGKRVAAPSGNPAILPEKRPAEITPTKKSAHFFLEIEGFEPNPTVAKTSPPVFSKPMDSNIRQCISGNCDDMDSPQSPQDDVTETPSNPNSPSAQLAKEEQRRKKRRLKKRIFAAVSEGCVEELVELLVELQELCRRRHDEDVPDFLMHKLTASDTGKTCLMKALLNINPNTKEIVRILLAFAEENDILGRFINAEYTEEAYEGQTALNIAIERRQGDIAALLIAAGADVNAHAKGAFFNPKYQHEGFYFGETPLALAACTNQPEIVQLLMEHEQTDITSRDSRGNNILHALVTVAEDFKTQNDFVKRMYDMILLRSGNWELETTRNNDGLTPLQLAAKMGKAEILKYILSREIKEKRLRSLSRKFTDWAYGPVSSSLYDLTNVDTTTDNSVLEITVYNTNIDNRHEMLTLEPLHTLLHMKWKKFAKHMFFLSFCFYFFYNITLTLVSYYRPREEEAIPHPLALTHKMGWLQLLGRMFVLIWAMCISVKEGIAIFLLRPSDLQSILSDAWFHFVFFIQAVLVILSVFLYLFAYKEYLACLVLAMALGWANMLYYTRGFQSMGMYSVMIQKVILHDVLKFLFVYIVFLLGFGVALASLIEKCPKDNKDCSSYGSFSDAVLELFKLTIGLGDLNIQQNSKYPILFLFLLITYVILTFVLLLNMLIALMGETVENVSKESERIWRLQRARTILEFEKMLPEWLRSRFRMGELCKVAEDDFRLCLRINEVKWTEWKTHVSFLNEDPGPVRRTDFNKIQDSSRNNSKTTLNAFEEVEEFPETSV
Experiment: In vitro antagonism of recombinant human TRPV3 activation (FLIPR Tetra calcium assay)
Assay type: cell-based
Conditions: HEK293 cells stably expressing human TRPV3; agonist 2-APB at 80 μM; actual measured value shown parenthetically; in most cases average of at least two runs; read-out: IC50
Exercise: for every item that follows, state its recorded pIC50.
Give bare numbers, as −log10 of the molar value.

Solved entries (count: 3):
| MOLECULE | pIC50 |
| --- | --- |
| O[C@H](c1ccccn1)C1(c2ccc(C(F)(F)F)cc2)CC(F)(F)C1 | 6.64 |
| OC(c1ccccn1)C1(c2ccc(F)c(C(F)(F)F)c2)CC(F)(F)C1 (centres unmarked) | 6.12 |
| N[C@@H]1CCC[C@H]1[C@@H](O)C1(c2ccc(Cl)cc2)CCC1 | 5.32 |

Continue with the molecule presented below.
Q: # value lookup — system human TRPV3 (Homo sapiens, UniProt Q8NET8), readout pIC50, item OC1CC(c2cc(C(F)(F)F)ccn2)(C(O)c2ccccn2)C1 (centres unmarked) [Example 283]
A: 6.16
